Each entry below carries its reported binding signal.
- STUDY_TARGET: d-enCas12a-Ultra (Acidaminococcus sp., UniProt U2UMQ6 1-1307, E174R;S542R;K548R;M537R;F870L;D908A;E993A;D1235A)
- ASSAY_NOTES: Spec-seq (native PAGE EMSA with sequencing of bound and unbound); 25 mM Tris-HCl pH 7.4, 150 mM KCl, 5 mM MgCl2, 10% glycerol, 1 mM DTT, 40 ng/uL salmon sperm DNA; 400 nM Cas12a, 480 nM crRNA, 50 nM library, 37 C 1 h; native PAGE at room temperature; high values mean tight binding;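 note: relative affinity from the bound to unbound sequence frequency ratio in Spec-seq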
- SETTINGS: protein: recombinant
Please give a number only; it is taken to be in lnKA.

Answered cases to consult:
BINDER	binding signal (lnKA)
CCAT (dsDNA) DNA 1: GCTATCTAGTGCTCAGTACGCACTGCCATAGGAAACTTCTGGCAGGACCAGGTCATGAGATCGGAAGAGCACACGTCTGAACTCCAGTCA DNA 2: TGACTGGAGTTCAGACGTGTGCTCTTCCGATCTCATGACCTGGTCCTGCCAGAAGTTTCCTATGGCAGTGCGTACTGAGCACTAGATAGC RNA: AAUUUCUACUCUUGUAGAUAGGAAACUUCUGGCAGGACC	-3.45
TGGG (dsDNA) DNA 1: GCTATCTAGTGCTCAGTACGCACTGTGGGAGGAAACTTCTGGCAGGACCAGGTCATGAGATCGGAAGAGCACACGTCTGAACTCCAGTCA DNA 2: TGACTGGAGTTCAGACGTGTGCTCTTCCGATCTCATGACCTGGTCCTGCCAGAAGTTTCCTCCCACAGTGCGTACTGAGCACTAGATAGC RNA: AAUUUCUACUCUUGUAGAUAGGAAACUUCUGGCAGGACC	-3.42

Return binding signal (reported value) for this binder: TTGG (dsDNA) DNA 1: GCTATCTAGTGCTCAGTACGCACTGTTGGAGGAAACTTCTGGCAGGACCAGGTCATGAGATCGGAAGAGCACACGTCTGAACTCCAGTCA DNA 2: TGACTGGAGTTCAGACGTGTGCTCTTCCGATCTCATGACCTGGTCCTGCCAGAAGTTTCCTCCAACAGTGCGTACTGAGCACTAGATAGC RNA: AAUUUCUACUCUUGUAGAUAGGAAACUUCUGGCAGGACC -2.4

Determine its reported binding signal: CTGA (dsDNA) DNA 1: GCTATCTAGTGCTCAGTACGCACTGCTGAAGGAAACTTCTGGCAGGACCAGGTCATGAGATCGGAAGAGCACACGTCTGAACTCCAGTCA DNA 2: TGACTGGAGTTCAGACGTGTGCTCTTCCGATCTCATGACCTGGTCCTGCCAGAAGTTTCCTTCAGCAGTGCGTACTGAGCACTAGATAGC RNA: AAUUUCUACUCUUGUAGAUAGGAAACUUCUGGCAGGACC -3.17

For the binder TAAA (dsDNA) DNA 1: GCTATCTAGTGCTCAGTACGCACTGTAAAAGGAAACTTCTGGCAGGACCAGGTCATGAGATCGGAAGAGCACACGTCTGAACTCCAGTCA DNA 2: TGACTGGAGTTCAGACGTGTGCTCTTCCGATCTCATGACCTGGTCCTGCCAGAAGTTTCCTTTTACAGTGCGTACTGAGCACTAGATAGC RNA: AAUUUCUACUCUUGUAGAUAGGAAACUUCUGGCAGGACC , give its reported binding signal. -3.04
